Each entry below carries its reported IC50.
# TARGET_UNDER_TEST: UniProt H0VZC5
METRIC_NAME: IC50

COMPOUND: O=C(NC1N=C(c2ccccc2F)c2ccccc2-n2cnnc21)OCc1ccccc1 (stereo not drawn)
MEASURED_RESULT: 8 µM
//
COMPOUND: Fc1ccccc1C1=N[C@H](Cc2c[nH]c3ccccc23)c2nnc(C(Cl)(Cl)Cl)n2-c2ccccc21
MEASURED_RESULT: > 100 µM
//
COMPOUND: Cc1nnc2n1-c1ccccc1C(c1ccccc1F)=NC2NC(=O)c1cc2ccccc2[nH]1 (stereo not drawn)
MEASURED_RESULT: 0.066 µM

###

# TARGET_UNDER_TEST: CCK receptor (Rattus norvegicus, UniProt P30551)
# Construct: The whole pancreas was dissected free of fat tissue and was homogenized; from tissue; host or cells: rat (Sprague-Dawley) whole pancreas membranes
# Sequence (P30551 whole entry): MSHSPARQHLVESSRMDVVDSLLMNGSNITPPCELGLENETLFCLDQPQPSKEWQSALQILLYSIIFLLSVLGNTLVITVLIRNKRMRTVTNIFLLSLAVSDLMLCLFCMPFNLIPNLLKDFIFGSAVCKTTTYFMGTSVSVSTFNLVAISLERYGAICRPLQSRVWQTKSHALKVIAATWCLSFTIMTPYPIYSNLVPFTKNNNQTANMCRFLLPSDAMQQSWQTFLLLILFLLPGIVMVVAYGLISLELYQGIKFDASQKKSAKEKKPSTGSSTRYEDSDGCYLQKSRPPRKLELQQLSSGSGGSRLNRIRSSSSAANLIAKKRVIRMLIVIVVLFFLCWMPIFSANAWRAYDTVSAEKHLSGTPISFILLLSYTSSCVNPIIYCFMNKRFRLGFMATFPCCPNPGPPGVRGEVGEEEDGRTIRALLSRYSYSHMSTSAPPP
# PROTOCOL_TEXT: CCK receptor binding (pancreas), inhibition of 125I-CCK-33 binding
# Parameters: species or system rat (Male Sprague-Dawley)
# CONDITION_PARAMETERS: 125I-CCK-33, rat pancreas membranes, 37° C., 30 minutes; read-out: IC50 125I-CCK Pancreas
pIC50: −log10 of the molar value.
# label = TRUE if pIC50 >= 8 else FALSE

COMPOUND: Cc1nnc2n1-c1ccccc1C(c1ccccc1F)=N[C@@H]2Cc1c[nH]c2ccccc12 [Compound 2]
TARGET_UNDER_TEST: CCK receptor (Rattus norvegicus, UniProt P30551)
QUALITATIVE_LABEL: FALSE
//
COMPOUND: Cc1nnc2n1-c1ccccc1C(c1ccccc1F)=NC2NC(=O)c1cc2ccccc2[nH]1 (stereo not drawn) [Compound 10]
TARGET_UNDER_TEST: CCK receptor (Rattus norvegicus, UniProt P30551)
QUALITATIVE_LABEL: TRUE
//
COMPOUND: Fc1ccccc1C1=N[C@H](Cc2c[nH]c3ccccc23)c2nncn2-c2ccccc21 [Compound 1]
TARGET_UNDER_TEST: CCK receptor (Rattus norvegicus, UniProt P30551)
QUALITATIVE_LABEL: FALSE
//
COMPOUND: O=C(NC1N=C(c2ccccc2F)c2ccccc2-n2cnnc21)c1ccc(Cl)cc1 (stereo not drawn) [Compound 8]
TARGET_UNDER_TEST: CCK receptor (Rattus norvegicus, UniProt P30551)
QUALITATIVE_LABEL: TRUE
//
COMPOUND: O=C(NC1N=C(c2ccccc2F)c2ccccc2-n2cnnc21)c1cc2ccccc2[nH]1 (stereo not drawn) [Compound 9]
TARGET_UNDER_TEST: CCK receptor (Rattus norvegicus, UniProt P30551)
QUALITATIVE_LABEL: TRUE
//
COMPOUND: Fc1ccccc1C1=N[C@H](Cc2c[nH]c3ccccc23)c2nnc(C(Cl)(Cl)Cl)n2-c2ccccc21 [Compound 6]
TARGET_UNDER_TEST: CCK receptor (Rattus norvegicus, UniProt P30551)
QUALITATIVE_LABEL: FALSE

###

pIC50: −log10 of the molar value.
Listed here: molecules with reported pIC50 for CCK receptor (Cavia porcellus, UniProt H0VZC5).

MOLECULE: O=C(NC1N=C(c2ccccc2F)c2ccccc2-n2cnnc21)c1ccc(Cl)cc1 (stereo not drawn)
pIC50: 5.03
//
MOLECULE: O=c1[nH]nc2n1-c1ccccc1C(c1ccccc1F)=N[C@@H]2Cc1c[nH]c2ccccc12
pIC50: 4.20
//
MOLECULE: Cc1nnc2n1-c1ccccc1C(c1ccccc1F)=N[C@@H]2Cc1c[nH]c2ccccc12
pIC50: 4.41
